- target.desc: T1, murine CD300LB on wild type mouse bone marrow macrophages (mouse, UniProt Q3U497 18-209)
- T1 construct: Endogenous receptor on primary cells; also called mCD300LB; Wt BMM
- T1 sequence: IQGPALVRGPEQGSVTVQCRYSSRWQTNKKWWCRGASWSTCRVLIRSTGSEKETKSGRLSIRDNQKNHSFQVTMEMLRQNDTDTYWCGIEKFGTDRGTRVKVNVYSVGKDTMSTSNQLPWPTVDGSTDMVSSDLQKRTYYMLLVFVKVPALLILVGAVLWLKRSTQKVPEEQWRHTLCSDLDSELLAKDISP
- test.protocol: flow cytometry, wild type mouse bone marrow macrophages, 10 ug/mL, isotype subtracted
property: gMFI (gMFI)
Supply the numeric figure in gMFI, leaving out any unit text.

Check out these entries, answers already filled in.
>>> numeric_readout("anti-CD300LB antibody CD-11 (antibody, V domains shown) VH: QIQLVQSGPEVKKPGETVKISCKASGYTLTDYSMHWVMQTPGTGLKWMAWMNTETGEPTYADDFKGRFAFSLETSAGTAYLQIDNLKNEDTATYFCATYGKSYGMKYWGQGTSVTVSS VL: DIVLTQSPPSLAVSLGQRATISCRATKSVSPYLHWYQQTPGQPPKLLIYLASNLDSGVPARFSGSGSGTDFTLNIHPVEEEDAATYYCQHNKELPPTFGGGTRLEIK")
349
>>> numeric_readout("anti-CD300LB antibody CD-16 (antibody, V domains shown) VH: QIQLVQSGPELKKPGETVKISCKASGYTFTDYSMHWVKQAPGKGLKWMAWINTETGEPTYADDFRGRFAFSLETSGRTAYLEINNLRNEDTATYFCVTYGSSYGMAYWGQGTSVTVSS VL: DIVLTQSPASLAVSLGQRATISCRASKSVSRSGYSYLHWYQQKPGQPPKLLIYLASKLESGVPARFSGSGSGTDFTLNIHPVEAEDAATYYCQHNREIPPTFGGGTKLEIK")
233

Turning to the following binder.
For this binder ( anti-CD300LB antibody CD-18 (antibody, V domains shown) VH: DVQLQESGPDLVKPSQSLSLTCTVTGYSITSGYSWHWIRQFPDNKLEWMGYILSRGDTNFNPSLKSRISITRSTSNNQFFLHFNSVTTEDTATYYCARDFFDYWGQGTTLTVSS VL: DVLMTQTPLSLPVSLGDQASISCRSSQSIVHSNGNTYLEWYLQKPGQSPKLLIYKVSDRFSGVPDRFSGSGSGTDFTLKISRVEAEDLGVYFCFQGSHVPYTFGGGTKLEIK ), measured gMFI is 1290
